biological target: GST-PPARG-LBD (Homo sapiens); construct: A mixture of 5 nM GST-PPARG-LBD; purchased Invitrogen; experiment: Lanthascreen PPARG competitive binding assay (Invitrogen); details: Table 3; read-out: IC50 (nM) Lantha
value kind: IC50 (nM)

Solved entries:
> print(dat)
                                   molecule  value.kind  result.unit  measured.number
1  Cc1nc2cc(C(=O)N[C@@H](C)c3cccc(C(C)C)c3)ccc2n1Cc1ccc(-c2cccnc2C(=O)O)cc1        IC50           nM             4800
2  CC(C)c1cccc([C@H](C)NC(=O)c2ccc3c(c2)ncn3Cc2ccc(-c3ccccc3C(=O)O)nc2)c1        IC50           nM             8740
3  COC(=O)c1ccccc1-c1ccc(Cn2cnc3cc(C(=O)N[C@@H](C)c4cccc(C(C)C)c4)ccc32)cn1        IC50           nM             9070
4  CC(C)CC(C)NC(=O)c1ccc2ncn(Cc3ccc(-c4ccccc4C(=O)O)cc3)c2c1 (centres unmarked)        IC50           nM             9.02
5  CC(C)CCC(C)NC(=O)c1ccc2ncn(Cc3ccc(-c4ccccc4C(=O)O)cc3)c2c1 (centres unmarked)        IC50           nM             2550

I. CC(C)CCC(C)NC(=O)c1ccc2c(c1)ncn2Cc1ccc(-c2ccccc2C(=O)O)cc1 (centres unmarked)
II. COCCCNC(=O)c1ccc2c(c1)ncn2Cc1ccc(-c2ccccc2C(=O)O)cc1
Challenge: # returns the entry with the larger IC50; inputs I and II Mark your selection by writing its label.
Response given: II
(II: 15000 nM, I: 26.7 nM)

----------
Target: PPARG (UniProt P37231)
Construct: PPRE % act 1 μM; other: 1 μM
Sequence (P37231 1-505): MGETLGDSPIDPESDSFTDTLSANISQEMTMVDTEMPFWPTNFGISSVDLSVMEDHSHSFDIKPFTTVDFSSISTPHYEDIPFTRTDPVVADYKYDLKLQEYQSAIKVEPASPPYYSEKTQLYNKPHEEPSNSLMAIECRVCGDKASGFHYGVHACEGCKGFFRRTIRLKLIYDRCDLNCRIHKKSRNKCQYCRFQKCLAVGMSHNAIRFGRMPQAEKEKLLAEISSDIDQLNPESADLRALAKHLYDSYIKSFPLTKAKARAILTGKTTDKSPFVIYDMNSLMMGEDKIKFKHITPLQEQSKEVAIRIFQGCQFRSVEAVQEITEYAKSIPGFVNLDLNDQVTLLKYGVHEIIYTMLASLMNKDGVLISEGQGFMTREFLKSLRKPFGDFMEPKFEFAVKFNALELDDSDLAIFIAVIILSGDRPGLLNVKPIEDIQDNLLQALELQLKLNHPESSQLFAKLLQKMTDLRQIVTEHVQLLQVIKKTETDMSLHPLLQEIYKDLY
Test: Cell-based transactivation assay (PPRE-luciferase reporter co-transfected with PPARG in COS-1 cells)
Set-up: species or system human or mouse
Conditions: Table 3
value kind: EC50 (nM)
// note: answer is a bare numeric in nM

Challenge: What value of measured EC50 is listed for "CC(C)c1cccc([C@H](C)NC(=O)c2ccc3c(c2)ncn3Cc2ccc(-c3ccccc3C(=O)O)cc2)c1" ?
Response given: 1.61
